target: Cyclin-dependent kinase 1 (Homo sapiens) (UniProt P06493); conditions: at 0.1 µM;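 also: enzyme assay on the CDK1/cyclin B complex, reported as mean percent inhibition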
Sequence (P06493 whole entry, looked up): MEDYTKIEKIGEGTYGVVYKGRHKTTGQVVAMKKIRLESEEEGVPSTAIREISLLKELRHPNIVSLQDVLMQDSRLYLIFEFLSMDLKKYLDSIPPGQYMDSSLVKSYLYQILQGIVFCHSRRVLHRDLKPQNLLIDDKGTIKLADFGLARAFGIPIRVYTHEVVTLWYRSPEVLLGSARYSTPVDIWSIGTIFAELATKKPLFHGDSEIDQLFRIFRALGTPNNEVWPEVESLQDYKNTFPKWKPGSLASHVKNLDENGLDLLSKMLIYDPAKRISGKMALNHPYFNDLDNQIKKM
Known inhibition of a selection of molecules
Kindly provide the numeric value in % only, without the unit symbol.

A selection of reference data follows.
>  <molecular-string>
CC(=O)NCc1cccc(C#Cc2cncnc2Nc2ccc(OCc3cccc(F)c3)c(Cl)c2)c1

>  <test-result>
0.28

$$$$
>  <molecular-string>
COc1cccc(-c2c[nH]c3c(N/N=C/c4ccncc4)ncnc23)c1

>  <test-result>
42

$$$$
>  <molecular-string>
FC(F)(F)c1cccc(-c2nn3ncccc3c2-c2ccnc(Nc3ccc4c(c3)OCCO4)n2)c1

>  <test-result>
1.58

$$$$

// query Request the reported inhibition associated with `CN1CCC(n2cnc(-c3ccc(F)cc3)c2-c2ccnc(Nc3ccccc3)n2)CC1`
// result 0.37

// query Can you look up the measured inhibition of `CCCN1CCC(c2ccc(Nc3nc(Nc4cc(F)ccc4C(N)=O)c4cc[nH]c4n3)c(OC)c2)CC1` for me?
// result 1.73

---

Here, each record is paired with measured inhibition data.
molecular target: BDNF/NT-3 growth factors receptor (Homo sapiens) (UniProt Q16620); settings: at 0.1 µM
Sequence (Q16620 32-822 limits assumed): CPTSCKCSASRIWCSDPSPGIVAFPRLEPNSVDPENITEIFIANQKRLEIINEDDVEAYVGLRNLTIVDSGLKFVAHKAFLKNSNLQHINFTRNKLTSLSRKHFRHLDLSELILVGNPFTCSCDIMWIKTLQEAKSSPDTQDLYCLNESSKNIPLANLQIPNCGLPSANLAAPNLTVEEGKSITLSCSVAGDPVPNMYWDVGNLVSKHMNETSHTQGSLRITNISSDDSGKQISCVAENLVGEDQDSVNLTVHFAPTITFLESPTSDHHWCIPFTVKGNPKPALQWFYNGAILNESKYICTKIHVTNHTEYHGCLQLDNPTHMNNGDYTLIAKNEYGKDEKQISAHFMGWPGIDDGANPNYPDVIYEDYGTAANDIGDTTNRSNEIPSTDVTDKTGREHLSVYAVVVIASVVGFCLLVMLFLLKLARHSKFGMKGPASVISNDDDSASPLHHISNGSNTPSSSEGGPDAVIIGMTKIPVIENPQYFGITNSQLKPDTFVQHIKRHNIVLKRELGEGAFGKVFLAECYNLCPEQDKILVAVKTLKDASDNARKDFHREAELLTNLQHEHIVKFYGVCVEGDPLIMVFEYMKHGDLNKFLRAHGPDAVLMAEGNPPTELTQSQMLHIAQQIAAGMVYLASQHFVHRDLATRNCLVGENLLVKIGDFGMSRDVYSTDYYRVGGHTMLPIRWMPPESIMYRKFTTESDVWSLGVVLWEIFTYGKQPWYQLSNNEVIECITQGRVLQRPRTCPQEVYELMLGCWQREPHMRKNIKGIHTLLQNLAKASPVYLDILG
Unit % implied. Number only.

>  <molecule>
Nc1nc(-c2ccc(F)cc2)c(-c2ccc3ncccc3n2)s1

>  <system>
BDNF/NT-3 growth factors receptor (Homo sapiens) (UniProt Q16620)

>  <test-result>
4.19

$$$$
>  <molecule>
CS(=O)(=O)CCNCc1ccc(-c2ccc3ncnc(Nc4ccc(OCc5ccccc5)c(C(F)(F)F)c4)c3c2)o1

>  <system>
BDNF/NT-3 growth factors receptor (Homo sapiens) (UniProt Q16620)

>  <test-result>
2.63

$$$$
>  <molecule>
c1ccc(-c2nc3n(c2-c2ccc4c(c2)OCO4)CCC3)nc1

>  <system>
BDNF/NT-3 growth factors receptor (Homo sapiens) (UniProt Q16620);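 also: each value is a mean percent inhibition of TrkB kinase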

>  <test-result>
-0.27

$$$$

// query Report inhibition for `CC(=O)Nc1cccc(C#Cc2cncnc2Nc2ccc(OCc3cccc(F)c3)c(Cl)c2)c1` please.
// result 0.63

// query Fill blank: measured inhibition of the molecule `O=C(Nc1n[nH]c2cc(-c3ccc(F)cc3)ccc12)C1CC1` is ____.
// result 2.53

// query Consider the molecule `CCN1CCC(CC(=O)Nc2n[nH]c3nnc(-c4cccc(F)c4F)cc23)CC1` and give its measured inhibition.
// result 0.47

// query # inhibition lookup, item `O=C(O[C@H]1CN[C@H](C#Cc2cc3ncnc(Nc4ccc(Cc5ccccc5)cc4)c3s2)C1)N1CCOCC1`
// result 0.67

// query Return reported inhibition; argument: `FC(F)(F)c1cccc(-c2nn3ncccc3c2-c2ccnc(Nc3ccc4c(c3)OCCO4)n2)c1`
// result 1.94

// query inhibition value for entry `Clc1ccc(-c2nn3ncccc3c2-c2ccnc(Nc3ccccc3)n2)cc1`
// result 2.34

---

molecular target: Serine/threonine-protein kinase pim-3 (Homo sapiens) (UniProt Q86V86); details: at 0.1 µM;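 also: mean inhibition of PIM3 kinase activity, recorded in the GSK_PKIS screening set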
assay-endpoint: inhibition (%)
Numeric only. Scale: %

These solved cases illustrate the format of a correct answer.
>  <molecular-string>
CCCN(CCS(C)(=O)=O)Cc1ccc(-c2ccc3ncnc(Nc4ccc(OCc5cccc(F)c5)c(Cl)c4)c3c2)o1

>  <measurement-units>
%

>  <inhibition>
0.79

$$$$
>  <molecular-string>
Cc1ccc(O)cc1Nc1ccnc2cc(-c3ccccn3)ccc12

>  <measurement-units>
%

>  <inhibition>
-0.3

$$$$

// query Observed inhibition on Serine/threonine-protein kinase pim-3 (Homo sapiens) (UniProt Q86V86) for `O=C(Nc1n[nH]c2cc(-c3ccc(F)cc3)ccc12)C1CC1` , please.
// result 0.08
